Source: patent US20240072809A1

# Kd per entry
# systemUnderTest: ASGPR (Homo sapiens (Human))
# assayInfo: Affinity to ASGPR measured by surface plasmon resonance (SPR)
# Format: binding
# conditionDescription: ASGPR ligands, Table 4; class symbols; read-out: ASGPR_PR Binding KD

[
  {
    "molecule": "CN(C)[C@@H]1CO[C@H](CO)[C@H](O)[C@@H]1O [Compound A393]",
    "Kd": "100 to 500 µM"
  },
  {
    "molecule": "OC[C@H]1OC[C@H](Nc2ccnc(C(F)(F)F)n2)[C@@H](O)[C@H]1O [Compound A301]",
    "Kd": "< 100 µM"
  },
  {
    "molecule": "CN(C)c1nsc(N[C@H]2CO[C@H](CO)[C@H](O)[C@@H]2O)n1 [Compound A339]",
    "Kd": "< 100 µM"
  },
  {
    "molecule": "OC[C@H]1OC[C@H](Nc2cccc(C(F)(F)F)n2)[C@@H](O)[C@H]1O [Compound A302]",
    "Kd": "< 100 µM"
  },
  {
    "molecule": "CS(=O)(=O)c1ccnc(N[C@H]2CO[C@H](CO)[C@H](O)[C@@H]2O)n1 [Compound A371]",
    "Kd": "< 100 µM"
  }
]

###

# systemUnderTest: ASGPR (Homo sapiens (Human), UniProt P07306)
# Sequence (P07306 whole entry): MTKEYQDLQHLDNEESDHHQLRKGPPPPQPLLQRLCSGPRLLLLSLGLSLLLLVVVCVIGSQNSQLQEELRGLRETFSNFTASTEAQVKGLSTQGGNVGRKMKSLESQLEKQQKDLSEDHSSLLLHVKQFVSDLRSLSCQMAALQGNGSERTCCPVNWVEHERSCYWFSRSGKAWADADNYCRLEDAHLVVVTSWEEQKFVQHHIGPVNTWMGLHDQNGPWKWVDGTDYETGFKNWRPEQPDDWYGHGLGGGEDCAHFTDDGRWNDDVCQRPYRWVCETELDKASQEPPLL
# assayInfo: Affinity to ASGPR measured by surface plasmon resonance (SPR)
# Assay type: binding
# conditionDescription: ASGPR ligands, Table 2; Biacore 8K, 25° C., steady state fit; read-out: SPR Binding External Calculation: KD

[
  {
    "smilesRepr": "N#Cc1sc(N[C@H]2CO[C@H](CO)[C@H](O)[C@@H]2O)nc1Cl",
    "Kd": "< 100 µM"
  },
  {
    "smilesRepr": "N[C@@H]1CO[C@H](CO)[C@H](O)[C@@H]1O",
    "Kd": "> 1000 µM"
  },
  {
    "smilesRepr": "CO[C@@H]1O[C@H](CO)[C@H](O)[C@H](O)[C@H]1n1ccc(=O)cc1",
    "Kd": "< 100 µM"
  },
  {
    "smilesRepr": "C=CC(=O)N[C@H]1[C@H](OC)O[C@H](CO)[C@H](O)[C@@H]1O",
    "Kd": "< 100 µM"
  },
  {
    "smilesRepr": "CO[C@@H]1O[C@H](CO)[C@H](O)[C@H](O)[C@H]1Nc1nc(Cl)cs1",
    "Kd": "< 100 µM"
  },
  {
    "smilesRepr": "CO[C@@H]1O[C@H](CO)[C@H](O)[C@H](O)[C@@H]1OC",
    "Kd": "> 1000 µM"
  },
  {
    "smilesRepr": "CO[C@@H]1O[C@H](CO)[C@H](O)[C@H](O)[C@H]1Nc1nc(=O)[nH]c(=O)[nH]1",
    "Kd": "< 100 µM"
  },
  {
    "smilesRepr": "CO[C@@H]1O[C@H](COS(=O)(=O)c2ccc(C)cc2)[C@H](O)[C@H](O)[C@H]1NC(C)=O",
    "Kd": "< 100 µM"
  }
]

###

# systemUnderTest: ASGPR (Homo sapiens (Human), UniProt P07306)
# assayInfo: Affinity to ASGPR measured by surface plasmon resonance (SPR)
# Type: binding
# conditionDescription: ASGPR ligands, Table 2; Biacore 8K, 25° C., steady state fit; read-out: SPR Binding External Calculation: KD
pKd: −log10 of the molar value.
# pKd per entry

[
  {
    "compound": "OC[C@H]1OC[C@@H](CCc2ccccc2)[C@@H](O)[C@H]1O",
    "pKd": "< 3.00"
  },
  {
    "compound": "OC[C@H]1OC[C@@H](CN2CCOCC2)[C@@H](O)[C@H]1O",
    "pKd": "< 3.00"
  },
  {
    "compound": "CO[C@H]1O[C@H](CO)[C@H](O)[C@H](O)[C@H]1Nc1nc(Cl)ns1",
    "pKd": "> 4.00"
  },
  {
    "compound": "[N-]=[N+]=NCC1CO[C@H](CO)[C@H](O)[C@@H]1O (stereo partly drawn)",
    "pKd": "> 4.00"
  },
  {
    "compound": "CO[C@@H]1O[C@H](CO)[C@H](O)[C@H](O)[C@H]1Nc1cccc(F)n1",
    "pKd": "< 3.00"
  },
  {
    "compound": "C[C@@H]1CO[C@H](CO)[C@H](O)[C@@H]1O",
    "pKd": "< 3.00"
  },
  {
    "compound": "CO[C@@H]1O[C@H](CO)[C@H](O)[C@H](O)[C@H]1N",
    "pKd": "3.30 to 4.00"
  },
  {
    "compound": "CO[C@@H]1O[C@H](CO)[C@H](O)[C@H](O)[C@H]1Nc1nc(N2CCN(C)CC2)ns1",
    "pKd": "> 4.00"
  },
  {
    "compound": "OC[C@@H]1CO[C@H](CO)[C@H](O)[C@@H]1O",
    "pKd": "3.30 to 4.00"
  }
]

###

# systemUnderTest: ASGPR (Homo sapiens (Human), UniProt P07306)
# assayInfo: Affinity to ASGPR measured by surface plasmon resonance (SPR)
# Type: binding
# conditionDescription: ASGPR ligands, Table 4; numeric lower bounds; read-out: ASGPR_PR Binding KD
recordedEndpoint: Kd

[
  {
    "smilesRepr": "COc1cc(C(N)=O)cc(N[C@H]2CO[C@H](CO)[C@H](O)[C@@H]2O)n1",
    "recordedEndpoint": "Kd",
    "value": "> 20 µM"
  },
  {
    "smilesRepr": "OC[C@H]1OC[C@H](Nc2cc(C(F)(F)F)ncn2)[C@@H](O)[C@H]1O",
    "recordedEndpoint": "Kd",
    "value": "> 20 µM"
  },
  {
    "smilesRepr": "CCOc1cc(C#N)nc(N[C@H]2CO[C@H](CO)[C@H](O)[C@@H]2O)n1",
    "recordedEndpoint": "Kd",
    "value": "> 20 µM"
  },
  {
    "smilesRepr": "OC[C@H]1OC[C@H](Nc2cc(C(F)(F)F)ccn2)[C@@H](O)[C@H]1O",
    "recordedEndpoint": "Kd",
    "value": "> 20 µM"
  },
  {
    "smilesRepr": "CNC(=O)[C@@H]1CO[C@H](CO)[C@H](O)[C@@H]1O",
    "recordedEndpoint": "Kd",
    "value": "> 200 µM"
  },
  {
    "smilesRepr": "CS(=O)(=O)c1nc(Cl)cc(N[C@H]2CO[C@H](CO)[C@H](O)[C@@H]2O)n1",
    "recordedEndpoint": "Kd",
    "value": "> 10 µM"
  },
  {
    "smilesRepr": "CS(=O)(=O)NC(=O)N[C@H]1CO[C@H](CO)[C@H](O)[C@@H]1O",
    "recordedEndpoint": "Kd",
    "value": "> 20 µM"
  },
  {
    "smilesRepr": "OC[C@H]1OC[C@@H](c2cncnc2)[C@@H](O)[C@H]1O",
    "recordedEndpoint": "Kd",
    "value": "> 200 µM"
  },
  {
    "smilesRepr": "OC[C@H]1OC[C@H](Nc2cc(C(F)(F)F)cnn2)[C@@H](O)[C@H]1O",
    "recordedEndpoint": "Kd",
    "value": "> 20 µM"
  },
  {
    "smilesRepr": "CC(=O)NCCC[C@@H]1CO[C@H](CO)[C@H](O)[C@@H]1O",
    "recordedEndpoint": "Kd",
    "value": "> 200 µM"
  },
  {
    "smilesRepr": "NC(=O)C[C@@H]1CO[C@H](CO)[C@H](O)[C@@H]1O",
    "recordedEndpoint": "Kd",
    "value": "> 200 µM"
  },
  {
    "smilesRepr": "OC[C@H]1OC[C@H](Nc2cc(Cl)nc(C(F)(F)F)n2)[C@@H](O)[C@H]1O",
    "recordedEndpoint": "Kd",
    "value": "> 20 µM"
  }
]

###

# systemUnderTest: ASGPR (Homo sapiens (Human))
# assayInfo: Affinity to ASGPR measured by surface plasmon resonance (SPR)
# Type: binding
# conditionDescription: ASGPR ligands, Table 4; class symbols; read-out: ASGPR_PR Binding KD
pKd: −log10 of the molar value.
# pKd per entry

[
  {
    "smilesRepr": "CO[C@H]1O[C@H](CO)[C@H](O)[C@H](O)[C@H]1Nc1cccc(F)n1",
    "pKd": "> 4.00"
  },
  {
    "smilesRepr": "OC[C@H]1OC[C@H](Nc2nccc(Cl)c2C(F)(F)F)[C@@H](O)[C@H]1O",
    "pKd": "> 4.00"
  },
  {
    "smilesRepr": "O=C(NC[C@@H]1CO[C@H](CO)[C@H](O)[C@@H]1O)C(F)(F)F",
    "pKd": "< 3.00"
  },
  {
    "smilesRepr": "O=S(=O)(N[C@H]1CO[C@H](CO)[C@H](O)[C@@H]1O)C(F)(F)F",
    "pKd": "> 4.00"
  },
  {
    "smilesRepr": "OC[C@@]12CO[C@@H](O1)[C@H](Nc1cncc(C(F)(F)F)n1)[C@@H](O)[C@H]2O",
    "pKd": "> 4.00"
  },
  {
    "smilesRepr": "OC[C@H]1O[C@H]2[C@@H]([C@@H](O)[C@H]1O)C2(Cl)Cl",
    "pKd": "3.30 to 4.00"
  },
  {
    "smilesRepr": "CO[C@@H]1O[C@H](CO)[C@H](O)[C@H](O)[C@H]1Nc1ncc(F)cc1F",
    "pKd": "> 4.00"
  },
  {
    "smilesRepr": "OC[C@H]1OC[C@@H](CN2CCCCC2)[C@@H](O)[C@H]1O",
    "pKd": "3.30 to 4.00"
  }
]
